test system: DeltatarO mutant; assay: S. aureus survival, RN4220 and DeltatarO strains – OD600, teichoic acid synthesis inhibitors, primary screen (AID 463173); conditions: S. aureus RN4220 wild type/DeltatarO growth, OD600, 18 h, hits give low values, screened at 18.75 µg/mL (by protocol)
In all, about 52,000 compounds went through this assay and about 4,300 (8.3%) were called active. This excerpt belongs to a sample that is enriched for actives.
survival vs 60%: less than gives True; not less than gives False.

[[record]]
compound = "COc1ccccc1N1CCN(C(c2ccc(Cl)cc2)c2nnc(-c3cccc(F)c3)o2)CC1 (stereo not given)"
category = "False"

[[record]]
compound = "Cc1cccc(N2CCN(C(c3ccc(F)cc3)c3nnc(-c4ccccc4)o3)CC2)c1C (stereo not given)"
category = "True"

[[record]]
compound = "CN1C(=O)C2(c3ccccc31)N(c1ccccc1)C(=O)CS2(=O)=O (stereo not given)"
category = "False"

[[record]]
compound = "COc1ccc(-c2cn3c(n2)sc2cc(C(=O)NCc4cccs4)ccc23)cc1"
category = "True"

[[record]]
compound = "Fc1ccc(C(c2nnc(-c3ccccc3)o2)N2CCN(c3ccccc3)CC2)c(Cl)c1 (stereo not given)"
category = "False"

[[record]]
compound = "O=C1CCSC2(C(=O)N(Cc3ccc(F)cc3)c3ccccc32)N1c1ccc(F)c(F)c1 (stereo not given)"
category = "False"

[[record]]
compound = "O=C(NCc1cccs1)c1ccc2c(c1)sc1nc(-c3ccccc3)cn12"
category = "False"

[[record]]
compound = "Cc1cccc(N2CCN(C(c3ccccc3)c3nnc(-c4ccccc4Cl)o3)CC2)c1C (stereo not given)"
category = "True"

[[record]]
compound = "COc1ccc(N2CCN(C(c3ccccc3)c3nnc(-c4ccccc4Cl)o3)CC2)cc1 (stereo not given)"
category = "True"

